system: HepG2 cells; test: cell viability test (MTT), concentration corresponding to an IC80; assay type: cell-based; details: HepG2 cells, exposure time 18 h; read-out: Concentration (calculated by cell viability test MTT, corresponds to an IC80)
Below: a set of entries, each annotated with reported IC80.
EXPERIMENTAL_ENDPOINT: IC80

COMPOUND	EXPERIMENTAL_ENDPOINT	TEST_VALUE
CC(C)[C@@H]1NC(=O)[C@H](C)OC(=O)[C@@H](C(C)C)NC(=O)[C@@H](C(C)C)OC(=O)[C@H](C(C)C)NC(=O)[C@H](C)OC(=O)[C@@H](C(C)C)NC(=O)[C@@H](C(C)C)OC(=O)[C@H](C(C)C)NC(=O)[C@H](C)OC(=O)[C@@H](C(C)C)NC(=O)[C@@H](C(C)C)OC1=O [Valinomycin]	IC80	15 nM
CN[C@@H]1C[C@H]2O[C@@](C)([C@@H]1OC)n1c3ccccc3c3c4c(c5c6ccccc6n2c5c31)C(=O)NC4 [Staurosporine]	IC80	50 nM
C[C@H]1C[C@H]2[C@@H]3CCC4=CC(=O)C=C[C@]4(C)[C@@]3(Cl)[C@@H](O)C[C@]2(C)[C@@]1(O)C(=O)CO [Beclomethazone]	IC80	50 nM
OO [H2O2]	IC80	100000 nM
